The following binders are shown together with reported pKd values.
SYSTEM_TESTED: T1, GFP-His6 (eGFP) (Aequorea victoria, UniProt P42212 2-238 = GFP)
T1 construct: SPR and bead assays speak only of recombinant GFP or eGFP; also called recombinant GFP; A. victoria (Av) GFP
TEST_PROTOCOL: bead binding assay (footnote 1)
pKd: −log10 of the molar value.
TEST_READOUT: pKd

>>> observed_result("LaG-35 (VHH) VHH: DVQLVESGGGLVQAGGSLRLSCTVSGRTFSNYAMGWFRQAPGKEREFVAGISWTGGHTLYTDSVKGRFTISRDNAKNTVYLQMNSLKPEDTALYYCAADRAADFFAQRDEYDYWGQGTQVTVS")
7.63
>>> observed_result("LaG-11 (VHH) VHH: DVQLVESGGRSVRAGDSLRLSCLASGGTFSLYAMGWFRQAPGKEREFVAAVTWSGGSTYYTDSVKGRFSISRDNAKNTVYLQMNSLKPEDTAVYYCAVRTSGFFGSIPVTERAFDYWGQGTQVTVS")
4.64
>>> observed_result("LaG-2 (VHH, that range is inconsistent in itself; not shown: PreScission Protease cleavage site and C-terminal 6xHis tag) VHH: QVQLVESGGGLVQAGGSLRLSCAASGRTFSNYAMGWFRQAPGKEREFVAAISWTGVSTYYADSVKGRFTISRDNDKNTVYVQMNSLIPEDTAIYYCAAVRARSFSDTYSRVNEYDYWGQGTQVTV")
7.72
>>> observed_result("LaG-19 (VHH) VHH: QVQLVESGGGLVQAGGSLRLSCAASGPTGAMAWFRQAPGKEREFVGGISRSGTDTYYVDSVKGRFTIDRDNAKNTVYLQMNSLKPEDTAVYYCAARRSQILFTSRTDYEFWGQGTQVTVS")
7.61
